Test system: SF-268 CNS
ASSAY PROTOCOL: NCI-60 one-dose screen, 48 h (100 = growth as untreated, 0 = no growth, -100 = all killed)
CONDITION PARAMETERS: 10 µM unless noted
This is part of a sample that, as a whole, favours compounds with a hit. Of some 83,000 tested, about 20% had one in any assay.
Assign growth to each entry below.
Report only the number, with the unit % understood.

stdin: For Cn1ccnc1C(=O)/C=C/c1ccc(C(=O)Nc2c(F)c(F)c(F)c(F)c2F)cc1 , what is its reported growth?
stdout: 3.53

stdin: Further, for CCc1ccc(Cc2cnc(NC(=O)c3cc(C)oc3C)s2)cc1 ?
stdout: 48.6

stdin: Again, but for N#CSCc1cc(Cl)c(CSC#N)cc1Cl
stdout: 63.3

stdin: And for CCOC(=O)C1=CCC(n2cc(F)c(=O)[nH]c2=O)O1 (stereo not drawn) ?
stdout: 101

stdin: Try O=C(Nc1ccccc1C(F)(F)F)C1=NCCCCN1 next.
stdout: 96.8

stdin: Same question, O=C(COc1ccc(/C=C2\Oc3ccccc3C2=O)cc1)Nc1nccs1 this time
stdout: 75.1

stdin: Same again, this time with C#CC#CC#CC#CC#CC#CC#CC#CC[C@@H]1OC[C@H](COC(=O)O[C@@H](C(=O)O[C@H]2C[C@@]3(O)[C@@H](OC(=O)c4ccccc4)[C@@H]4[C@]5(OC(C)=O)CO[C@@H]5C[C@H](O)[C@@]4(C)C(=O)[C@H](OC(C)=O)C(=C2C)C3(C)C)[C@@H](NC(=O)c2ccccc2)c2ccccc2)O1
stdout: 51.7

stdin: Another molecule to look at: CN(C)CCOc1ccc(/C(=C(/CCCCCCCCCC[P+](c2ccccc2)(c2ccccc2)c2ccccc2)c2ccccc2)c2ccccc2)cc1
stdout: -72.1

stdin: Can you check CC(C)=CC(=O)C1C(=O)c2ccccc2C1=O next?
stdout: 101

stdin: Next molecule: Cc1ccccc1NC(=O)Cn1cc(CN2CCN(c3ccnc4cc(Cl)ccc34)CC2)nn1
stdout: 92.6

stdin: Same read-out for O=C(CSc1nc(-c2ccccc2)cn1-c1ccc(Cl)cc1)c1ccc([N+](=O)[O-])cc1 ?
stdout: -86.7

stdin: Continue with CC1=C2[C@@H](CC1)[C@]1(C)O[C@@](C(C)C)(C[C@H]1OC(=O)CO)[C@H]2OC(=O)CCCc1ccccc1
stdout: 73.4

stdin: And the next one, NCCCCCNc1noc(Cc2c[nH]c3cc(Br)ccc23)n1 ?
stdout: 54.1

stdin: Please answer likewise for CCN1C(=O)N(CC)C2C1NN=c1s/c(=C3\C(=O)N(C)c4ccccc43)c(=O)n12 (stereo not drawn)
stdout: 70.5

stdin: Then Cc1ccc(NC(=O)c2ccc(Nc3ncnc4c3cnn4-c3cccc(F)c3)cc2)cc1 ?
stdout: 97.2

stdin: Consider next the molecule CCCn1cnc2c(c1=N)C(c1ccc(Cl)cc1)c1sc3c(F)cccc3c1O2 (stereo not drawn) in the same way.
stdout: 83.8

stdin: Next record, please: CCN=c1sc2c(n1NC(=O)c1cc3ccc1CCc1ccc(cc1)CC3)C(=O)c1ccccc1C2=O
stdout: -10.6

stdin: What do we get for COc1ccc(-c2cc(-c3ccc(N(C)C)cc3)nc(NC(=O)c3cccnc3)n2)cc1 ?
stdout: 90.6

====

Tested on: SF-268 CNS
ASSAY PROTOCOL: NCI-60 one-dose screen, 48 h (100 = growth as untreated, 0 = no growth, -100 = all killed)
CONDITION PARAMETERS: 10 µM unless noted
This is part of a sample that, as a whole, favours compounds with a hit. Of some 83,000 tested, about 20% had one in any assay.
MEASURED ENDPOINT: growth (%)
The response must be a number in % with no trailing unit.

stdin: What value of measured growth is listed for O=C(/C=C/c1cccc([N+](=O)[O-])c1)c1ccc(Nc2nc(Nc3ccc(F)cc3)nc(Nc3ccc(Cl)cc3)n2)cc1 ?
stdout: 93.8

stdin: And then COC12C=C/C(=C(/C(=O)OCc3ccccn3)C(=O)CCCCCCCCC3(OC)C=C/C(=C(/C(=O)OCc4ccccn4)C(=O)CCCCCCCC1)O3)O2 , what is it?
stdout: -8.87

stdin: // query: CC(CN)[C@@H]1CC[C@]2(CO)CC[C@]3(C)[C@H](CC[C@@H]4[C@@]5(C)CCC(NCCO)C(C)(C)[C@@H]5CC[C@]43C)[C@@H]12 (stereo partly drawn)
stdout: 60.6

====

Tested on: LOX IMVI melanoma
ASSAY PROTOCOL: NCI-60 one-dose screen, 48 h
CONDITION PARAMETERS: 10 µM unless noted
Compounds without any hit were thinned out: in the full panel of roughly 83,000, 20% have a hit. Activity calls are given as the source filed them. The calls were made as follows: active = growth percent below 10; inactive = the rest.
// classify into active, inactive

stdin: Please share the test call associated with COc1ccccc1-c1nc2ccc3[nH]ncc3c2c2c1CCCC2 .
stdout: inactive

stdin: Can you check CCC(=C(c1ccc(OCCN(CC)CC)cc1)c1ccc(OCCN(CC)CC)cc1)c1ccc(Cl)cc1 next?
stdout: active

stdin: Next entry: Clc1ccc(C2=Nn3c(nnc3-c3cc(Cl)cc(Cl)c3Cl)SC2)cc1
stdout: inactive

stdin: Similarly, O=C(O)/C=C/c1cn(-c2ccccc2)nc1-c1ccc(F)cc1 ?
stdout: inactive

stdin: Again, but for COc1cc2c(c(OC)c1OC)C(=O)CC(c1cccc(C(=O)Nc3ccc(Br)cc3)c1)O2 (configuration not stated)
stdout: inactive

stdin: Also, C=C(C)[C@@H]1CC[C@]2(C(=O)NC(C)=O)CC[C@]3(C)[C@H](CC[C@@H]4[C@@]5(C)CCCNC(C)(C)[C@@H]5CC[C@]43C)[C@@H]12 please.
stdout: active

stdin: Try the compound CCOC(=O)C1=CCC(n2cc(F)c(=O)[nH]c2=O)O1 (configuration not stated)
stdout: inactive

stdin: // repeat for O=C1/C(=C/c2ccccc2)COc2ccc(O)cc21 and report
stdout: inactive

stdin: # repeat for N#CSCc1cc(Cl)c(CSC#N)cc1Cl
stdout: inactive

stdin: Likewise for COc1ccccc1/C=C/C1=C(C)CCC(c2ccccc2OC)C1C (configuration not stated) ?
stdout: active

stdin: // repeat for O=C(O)COc1ccc(F)cc1 and report
stdout: inactive

stdin: Try Nc1cc(-c2ccc(Cl)cc2)nn1-c1nc(-c2ccc(Br)cc2)cs1 next.
stdout: inactive

stdin: Try the compound CCOC(=O)c1c(Nc2nc3ccccc3s2)sc2c1CCC(=O)C2
stdout: inactive

stdin: Then COc1ccc(NC(=O)c2sc3nc(C)c(C(=O)c4ccccc4)cc3c2N)cc1 ?
stdout: inactive

stdin: Check CCOC(=O)c1c(C)n2c(=O)cc(C)c3c(OC(C)=O)c(OC(C)=O)cc1c32 too.
stdout: inactive

stdin: Moving on to the next compound: Cc1ccc(C2=Nc3c(N)nc(N)nc3NC(c3cccc(Nc4ccnc5cc(C(F)(F)F)ccc45)c3)C2)cc1 (configuration not stated)
stdout: active

stdin: Same again, this time with C#CCOc1cc(/C=N/Nc2nc(-c3ccc(OC)cc3)cs2)ccc1O
stdout: inactive

stdin: Ok, now C#CCOc1ccc(C2=NN(C)C3N=C(Cl)c4ncn(C)c4N23)cc1OCC#C (configuration not stated)
stdout: inactive

stdin: Same lookup for COc1ccc(CNc2ccc3nc(CCC4CCCCC4)[nH]c3c2)cc1 , please.
stdout: inactive

stdin: Moving on to the next compound: CSc1nc(CC(C)C)c(C#N)c(=O)n1C
stdout: inactive

stdin: Consider next the compound Cc1ccc(S(=O)(=O)c2nc(-c3ccccc3)oc2S(C)=O)cc1 (configuration not stated) in the same way.
stdout: active

stdin: Please give the result for CCCn1cnc2c(c1=N)C(c1ccc(Cl)cc1)c1sc3c(F)cccc3c1O2 (configuration not stated) too.
stdout: inactive

stdin: Consider next the compound c1ccc(-c2cn3nc(-c4c[nH]c5ccccc45)sc3n2)cc1 in the same way.
stdout: inactive

stdin: Query Cc1nn(-c2ccccc2)c(Oc2ccccc2)c1/C=N/NC(=O)Cn1c(=O)sc2ccccc21 next
stdout: inactive

stdin: What about this compound? CCc1ccc(Cc2cnc(NC(=O)c3cc(C)oc3C)s2)cc1
stdout: inactive

stdin: Next up: Cc1ccc(C(F)(F)F)cc1N1CCN(C(=O)[C@H]2C[C@H]2c2ccc(C(F)(F)F)nc2)CC1
stdout: inactive

stdin: What do you have for FC(F)(F)c1cccc(-c2nnn(Cc3cc(-c4cccc(Cl)c4)no3)n2)c1 ?
stdout: inactive

stdin: Try this compound too: CCCC[N+]1(C)CCN=C1Cc1ccccc1 (configuration not stated)
stdout: inactive

stdin: And then CC1OC(C(=O)N2CCN(CCO)CC2)CC1COC1CCCCC1 (configuration not stated) , what is it?
stdout: inactive

stdin: Ok, now CCCNNC(=O)c1ccc(CNC(=O)/C=C/c2ccccc2)cc1
stdout: inactive

stdin: Do the same for COC(=O)[C@H](C)NC(=O)c1ccc(NC(=O)c2[nH]c(C)c(Cl)c2Cl)c(OCCN)c1 please
stdout: inactive

stdin: What about O=C(OCC(O)C(=O)NC12CC3CC(CC(C3)C1)C2)c1cccc(Br)c1 (configuration not stated) ?
stdout: inactive

stdin: Further, for Nc1nc(=O)n([C@H]2CC=C(CO)O2)cc1F ?
stdout: inactive

stdin: One more compound: COc1ccc(-c2nc3cc(C(=O)NC4CCCCC4)ccc3n2C2CCCCC2)cc1
stdout: inactive

stdin: Check CCN(CC)c1ccc(/C=N/NC(=O)c2ccccc2Nc2ccnc(C(F)(F)F)c2)c(O)c1 too.
stdout: active

stdin: Another: O=C1/C(=C/c2cccc([N+](=O)[O-])c2)COc2ccc(O)c(O)c21
stdout: active

stdin: // repeat for c1ccc2cc(Cn3cc[n+](Cc4ccc5ccccc5c4)c3)ccc2c1 and report
stdout: inactive

stdin: Now give it for Cc1ccc(C2(C)NC(=O)N(CC(=O)Nc3cccc(C)c3)C2=O)cc1 (configuration not stated) too.
stdout: inactive

stdin: Now the same for Cn1cc(-c2ccc3occ(-c4cccc(-c5ccncc5)c4)c3n2)cn1
stdout: inactive

stdin: Try Cc1nc2ccccc2c(/C=C/c2ccc(Cl)cc2)c1C(=O)/C=C/c1ccccc1 next.
stdout: active

stdin: What about this compound? N#C/C(=C/C=C/c1ccccc1)S(=O)c1ccccc1 (configuration not stated)
stdout: active

stdin: Check CCNCCNc1c(C)c(-c2ccc(C(F)(F)F)cc2)c(C#N)c2nc3ccccc3n12 too.
stdout: inactive
